// data source = patent US20200399391A1

This section presents binders with their documented kon values.
- MEASURED_ON: T1, human CD38 (human, UniProt P28907 43-300, limits assumed)
- T1 construct: Soluble analyte in SPR; the construct (limits, tags) is not described; also called huCD38
- EXPERIMENT_SUMMARY: SPR (Biacore), mAb captured on anti-Fc chip, after thermal stress of the mAb (14 days at 40 C); n = 3
OUTCOME_MEASURE: kon (M⁻¹ s⁻¹)

mAb 6 (antibody, human IgG1, kappa, V domains shown, Humanized heavy and light chains with engineered Fc; also called anti-CD38 mAb 6; HEAVY CHAIN 5 / LIGHT CHAIN 3) VH: QVQLVQSGAEVAKPGASVKVSCKASGYTFTDYWMQWVRQAPGQGLEWIGTIYPGDGDTSYAQKFQGRVTMTADTSTSTVYMELSSLRSEDTAVYYCARGDYYGSNSLDYWGQGTLVTVSS VL: DIVMTQSPDSLAVSLGERATINCKSSQDVSTVVAWYQQKPGQSPRRLIYSASYRYIGVPDRFSGSGSGTDFTFTISSLQAEDVAVYYCQQHYSPPYTFGGGTKLEIKR	3.86e+06
mAb 5 (antibody, human IgG1, kappa, V domains shown, Humanized heavy and light chains with engineered Fc; also called anti-CD38 mAb 5; HEAVY CHAIN 5 / LIGHT CHAIN 2) VH: QVQLVQSGAEVAKPGASVKVSCKASGYTFTDYWMQWVRQAPGQGLEWIGTIYPGDGDTSYAQKFQGRVTMTADTSTSTVYMELSSLRSEDTAVYYCARGDYYGSNSLDYWGQGTLVTVSS VL: DIVMTQSPDSLAVSLGERATINCKSSQDVSTVLAWYQQKPGQSPRRLIYSASYRYIGVPDRFSGSGSGTDFTLTISSLQAEDVAVYYCQQHYSPPYTFGGGTKLEIKR	2.95e+06
mAb 8 (antibody, human IgG1, kappa, V domains shown, Humanized heavy and light chains with engineered Fc; also called anti-CD38 mAb 8; HEAVY CHAIN 6 / LIGHT CHAIN 3) VH: QVQLVQSGAEVAKPGASVKVSCKASGYTFTDYWMQWVKQRPGQGLEWIGTIYPGDGDTGYAQKFQGRVTMTADKSTSTVYMELSSLRSEDTAVYYCARGDYYGSNSLDYWGQGTLVTVSS VL: DIVMTQSPDSLAVSLGERATINCKSSQDVSTVVAWYQQKPGQSPRRLIYSASYRYIGVPDRFSGSGSGTDFTFTISSLQAEDVAVYYCQQHYSPPYTFGGGTKLEIKR	3.53e+06
